Exercise: for every item that follows, state its recorded Kd.
- Tested Target: T1, human ST2L extracellular domain with C-terminal His6 tag (human, UniProt Q01638 19-328)
- T1 construct: also called huST2L-ECD; ST2L-ECD
- T1 sequence: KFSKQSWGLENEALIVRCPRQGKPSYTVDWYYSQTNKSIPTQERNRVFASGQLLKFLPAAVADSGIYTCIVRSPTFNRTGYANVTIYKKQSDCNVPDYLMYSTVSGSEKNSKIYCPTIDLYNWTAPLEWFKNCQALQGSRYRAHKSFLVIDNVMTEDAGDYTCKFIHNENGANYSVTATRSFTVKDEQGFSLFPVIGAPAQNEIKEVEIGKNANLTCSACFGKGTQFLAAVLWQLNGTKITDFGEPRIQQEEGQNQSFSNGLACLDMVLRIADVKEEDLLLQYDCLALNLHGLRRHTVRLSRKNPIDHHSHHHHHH
- Protocol Details: SPR, mAb captured, ST2L-ECD in solution
Answers are plain numbers, in pM.

Example results:
- Binder: "STLM216 (antibody, V domains shown, frameworks VH3-23 / Vk-L6) VH: EVQLLESGGGLVQPGGSLRLSCAASGFTFSSYDMFWVRQAPGKGLEWVSDIKGEGGATNYADSVKGRFTISRDNSKNTLYLQMNSLRAEDTAVYYCARDPWSTEGSFFVLDYWGQGTLVTVSS VL: EIVLTQSPATLSLSPGERATLSCRASQSVDDDLAWYQQKPGQAPRLLIYDASNRATGIPARFSGSGSGTDFTLTISSLEPEDFAVYYCQQYIGAPITFGQGTKVEIK"
  Kd, pM: 16
- Binder: "STLM103 (antibody, V domains shown, frameworks VH3-23 / Vk-L6) VH: EVQLLESGGGLVQPGGSLRLSCAASGFTFSFYDMFWVRQAPGKGLEWVSSIRGEGGRTDYADSVKGRFTISRDNSKNTLYLQMNSLRAEDTAVYYCARDPWSTEGSFFVLDYWGQGTLVTVSS VL: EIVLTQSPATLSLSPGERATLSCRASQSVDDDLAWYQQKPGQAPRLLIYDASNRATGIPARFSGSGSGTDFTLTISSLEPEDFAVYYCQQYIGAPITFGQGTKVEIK"
  Kd, pM: 41

Please give Kd for each item listed below.
1. STLM208 (antibody, V domains shown, frameworks VH3-23 / Vk-L6) VH: EVQLLESGGGLVQPGGSLRLSCAASGFTFSIYDMIWVRQAPGKGLEWVSSIRGEGGGTYYADSVKGRFTISRDNSKNTLYLQMNSLRAEDTAVYYCARDPWSTEGSFFVLDYWGQGTLVTVSS VL: EIVLTQSPATLSLSPGERATLSCRASQSVDDDLAWYQQKPGQAPRLLIYDASNRATGIPARFSGSGSGTDFTLTISSLEPEDFAVYYCQQYITAPLTFGQGTKVEIK
2. STLM227 (antibody, V domains shown, VH STLH201 + VL STLL277) VH: EVQLVQSGAEVKKPGATVKISCKVSAFNIKDDYMHWVQQAPGKGLEWMGRIDPAIGNTEYAEKFQGRVTITADTSTDTAYMELSSLRSEDTAVYYCATGDFYAMAYWGQGTLVTVSS VL: DIQLTQSPSFLSASVGDRVTITCITNTDIDDVIHWYQQKPGKAPKLLIYEGNTLRPGVPSRFSGSGSGTEFTLTISSLQPEDFATYYCLQSDNMLTFGQGTKLEIK
3. STLM231 (antibody, V domains shown, VH STLH201 + VL STLL273; also called S1LM231) VH: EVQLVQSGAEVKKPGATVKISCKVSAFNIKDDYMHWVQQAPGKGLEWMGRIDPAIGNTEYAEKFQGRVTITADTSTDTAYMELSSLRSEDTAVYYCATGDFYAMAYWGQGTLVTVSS VL: DIQMTQSPSSLSASVGDRVTITCITNTDIDDVIHWYQQKPGKVPKLLIYEGNTLRPGVPSRFSGSGSGTDFTLTISSLQPEDVATYYCLQSDNMLTFGQGTKLEIK

[11, 64, 46]
